System: HPPD polypeptides (wild-type SEQ ID NO:1 and mutants)
cond: in the presence of Cmpd. 1, 15 μM inhibitor, high substrate concentration; kapp normalized to kapp without inhibitor
reported_metric: Residual activity (%)
Only the number, expressed in %, is required.

A selection of reference data follows.
{"molecule": "24 (protein, mutant HPPD polypeptide) MADLYENPMGLMGFEFIEFASPTPGTLEPIFEIMGFTKVATHRSKNVHLYRQGEINLILNNEPNSIASYFAAEHGPSVCGMAFRVKDSQKAYNRALELGAQPIHIDTGPMELNLPAIKGIGGAPLYLIDRFGEGSSIYDIDFVYLEGVERNPVGAGLKVIDHLTHNVYRGRMVYWANFYEKLFNFREARYFDIKGEYTGLTSKAMSAPDGMIRIPLNEESSKGAGQIEEFLMQFNGEGIQHVAFLTDDLVKTWDALKKIGMRFMTAPPDTYYEMLEGRLPDHGEPVDQLQARGILLDGSSVEGDKRLLLQIFSETLMGPVFFEFIQRKGDDGFGPHSFKVLFESVERDQVRRGVLTAD", "unit_info": "%", "Residual activity": 28}
{"molecule": "10 (protein, mutant HPPD polypeptide) MADLYENPMGLMGFEFIEFASPTPGTLEPIFEIMGFTKVATHRSKNVHLYRQGEINLILNNEPNSIASYFAAEHGPSVCGMAFRVKDSQKAYNRALELGAQPIHIDTGPMELNLPAIKGIGGAPLYLIDRFGEGSSIYDIDFVYLEGVERNPVGAGLKVIDHLTHNVYRGRMVYWANFYEKLFNFREARYFDIKGEYTGLTSKAMSAPDGMIRIPLNEESSKGAGQIEEFLMQFNGEGIQHVAFLTDDLVKTWDALKKIGMRFMTAPPDTYYEMLEGRLPDHGEPVDQLQARGILLDGSSVEGDKRLLLQIFSETLMGPVFFEFIQRKGDDGFGPDSFKVLFESVERDQVRRGVLTAD", "unit_info": "%", "Residual activity": 41}

Q: Which Residual activity value is on record for 22 (protein, mutant HPPD polypeptide) MADLYENPMGLMGFEFIEFASPTPGTLEPIFEIMGFTKVATHRSKNVHLYRQGEINLILNNEPNSIASYFAAEHGPSVCGMAFRVKDSQKAYNRALELGAQPIHIDTGPMELNLPAIKGIGGAPLYLIDRFGEGSSIYDIDFVYLEGVERNPVGAGLKVIDHLTHNVYRGRMVYWANFYEKLFNFREARYFDIKGEYTGLTSKAMSAPDGMIRIPLNEESSKGAGQIEEFLMQFNGEGIQHVAFLTDDLVKTWDALKKIGMRFMTAPPDTYYEMLEGRLPDHGEPVDQLQARGILLDGSSVEGDKRLLLQIFSETLMGPVFFEFIQRKGDDGFGPHSFKVLFESIERDQVRRGVLTAD ?
A: 26
